Reference source for all entries: a melting point compilation (Tetko et al.; mined from patent text by program, amines drawn as free bases though some values may be those of a salt)

Each record here notes measured melting point.

Data request: Return reported melting point; argument: CC1Nc2ccc(-c3csc(C#N)c3)cc2C2(CCCCC2)O1 (stereo unspecified)
Data returned: 111 to 112 °C

Data request: Entry COc1ccncc1-c1cccc(OC2SCC(O)C(O)C2O)c1 (stereo unspecified) please
Data returned: 195 °C

Data request: Continue with COc1nc2ccccc2nc1NC(=S)N1CCN(c2cc(C)cc(C)c2)CC1
Data returned: 193 to 195 °C

Data request: Lookup CCCCCCOC(=O)Nc1ccc2c(c1)NC(=O)C2(C)C
Data returned: 180 to 183 °C

* * *

Each entry below lists one item and its recorded melting point value.

* COc1cc(OCc2ccccn2)ccc1/C=C/c1cc(/C=C/c2ccc3[nH]nnc3c2)n[nH]1 | 113 to 120 °C
* CC(Cl)(Cl)C(NC(=O)c1ccc(C(F)(F)F)cc1)NC(=NC#N)Nc1ccc(Cl)nc1 (configuration not stated) | 210 to 211 °C
* CSc1cccc(-n2cnc(C(=O)O)c2)c1 | 190 to 192 °C
* COc1ccc(S(=O)(=O)n2ccc3ccnc(-c4ccc(F)cc4)c32)cc1 | 136 to 137 °C
* CSc1nnc(C2CCCCC2)c(=O)n1C | 84 to 88 °C
* COCCNS(=O)(=O)CC1CC(C)(C)Oc2ccc(OCCO)cc21 (configuration not stated) | 61 to 63 °C
* O=[N+]([O-])c1ccc(OCc2nnco2)cc1 | 125 to 126 °C
* C=CCc1c(O)cc(C)c2ccc(=O)oc12 | 177 °C

Data request: Entry COC(=S)C(Cl)=C(C)Cl : reported melting point = ?
Data returned: 27 to 30 °C

Data request: Would you kindly repeat that for CCOC(=O)C(Cc1ccc2ccccc2n1)(OC1CCCCO1)C(=O)OCC (configuration not stated) ?
Data returned: 75 to 78 °C

Data request: Follow-up entry: Nc1ccc(CS(=O)(=O)CCO)cc1CS(=O)(=O)CCO
Data returned: 183 to 185 °C

* * *

attribute measured: melting point

Data request: # get_value(readout='melting point', item= COc1cc(OC)c(-c2nc3cccnc3[nH]2)cc1C=CC(=O)c1ccc(S(N)(=O)=O)cc1 )
Data returned: > 260 °C

Data request: Consider next the molecule CCOC(=O)C1(C)OC2(O)C3CCCN3C(=O)C(Cc3ccccc3)N2C1=O (configuration not stated) in the same way.
Data returned: 134 to 136 °C

Data request: For CCOC(=O)c1ncn2c1c(=O)n(C)c1ccccc12 then?
Data returned: 218 to 220 °C

Data request: And for CC(=O)N1CC[C@H]2Cc3ccccc3[C@@H](c3ccccc3)N2CC1 (racemic) ?
Data returned: 145 to 147 °C

Data request: # iterate: O=C(O)Cc1cc(C(=O)c2ccc(Cl)cc2)sc1-c1ccccc1
Data returned: 142 to 143 °C

Data request: Next up: O=C(O)CCc1cc2cc(Cl)ccc2n1S(=O)(=O)c1ccc2[nH]ccc2c1
Data returned: 79 °C

Data request: Same question, CC(=O)c1c(Cl)cc(Cl)cc1OCC(=O)O this time
Data returned: 110 °C

* * *

Item-by-item account of melting point

Sample answers from the record:
- CC(=O)SCCC(=O)NC1(C(=O)O)CCCC1: 127 to 128 °C
- CCCCCc1ccc(C(=O)CCC(=O)O)cc1: 98 to 100 °C
- O=c1[nH]cc(Cl)c2ccc(CO)cc12: 266 to 268 °C

Data request: // lookup melting point for CCc1nc2ccccc2c(=O)o1
Data returned: 83.9 °C

Data request: Query COc1ccc2c(c1)c(C(C)C(=O)O)cc(=O)n2-c1ccc(Cl)cc1 (centres undefined) next
Data returned: 177 to 178 °C

Data request: Record: Cc1c(-c2ccccc2Cl)sc2nc(N)[nH]c(=O)c12
Data returned: 334 to 336 °C

Data request: Likewise for CSc1ccc(NC(=N)c2ccc(C(F)(F)F)cc2)cc1 ?
Data returned: 144 to 146 °C

Data request: Also O=C(O)c1c(-c2ccccc2)nc2c(C(F)(F)F)cccc2c1O , if possible.
Data returned: 204 °C

Data request: Another: CC1Oc2ccc(CN3CCN(c4ccc(C(=O)O)cn4)CC3)cc2NC1=O (centres undefined)
Data returned: 243 to 248 °C

Data request: // same read-out, input: N#Cc1cccc2c1CCc1cc(C(F)(F)F)ccc1S2
Data returned: 113 to 114 °C

Data request: // query: CCOc1c(OC)c(OC)cc(C(=O)O)c1-c1c(C(=O)O)cc(OC)c2c1OCO2
Data returned: 236 to 237 °C

Data request: Entry Cc1oc2c(C)c(C)c(OCc3ccccc3)c(C)c2c1CN1CCC[C@H]1CO please
Data returned: 98 to 100 °C

Data request: Can you check O=C1c2ccccc2C(=O)N1CCCCCCc1cncnc1 next?
Data returned: 124 to 126 °C

Data request: Let us now turn to COc1ccc(-c2cc(=O)cc(N3CCOCC3)s2)cc1
Data returned: 199 to 200 °C

Data request: Input CN(C)CCCOc1cc2oc3cc(-c4ccccc4Cl)c4c(c3c2cc1O)C(=O)NC4=O
Data returned: 255 to 258 °C
